Numbers sourced from ChEMBL document CHEMBL1921730.

- Tested on: Plasmodium falciparum
- experiment summary: Antiplasmodial activity against Plasmodium falciparum assessed as inhibition of parasite LDH activity after 72 hrs
- Type: functional, organism-based
pIC50: −log10 of the molar value.
observable: pIC50

Please review the following examples before continuing.
[
  {
    "structure string": "Cl.Cl.c1cn(CCCCCCCCCCn2ccnc2)cn1",
    "observable": "pIC50",
    "observed result": 5.04
  },
  {
    "structure string": "c1cn(Cc2ccc(-c3ccc(Cn4ccnc4)cc3)cc2)cn1",
    "observable": "pIC50",
    "observed result": 5.77
  },
  {
    "structure string": "Cl.Cl.c1cn(CCCCCCCCCCCCCCCn2ccnc2)cn1",
    "observable": "pIC50",
    "observed result": 6.03
  },
  {
    "structure string": "c1cn(CCCCCCCCCCCn2ccnc2)cn1",
    "observable": "pIC50",
    "observed result": 5.72
  },
  {
    "structure string": "C[n+]1ccn(CCCCCCCCCCCCCCCCCCn2cc[n+](C)c2)c1.[I-].[I-]",
    "observable": "pIC50",
    "observed result": 9.05
  }
]

1: [Br-].[Br-].c1ccc(C[n+]2ccn(-c3ccc(-c4ccc(-n5cc[n+](Cc6ccccc6)c5)cc4)cc3)c2)cc1
2: Cl.Cl.c1cn(CCCCCCCCCCCCCCn2ccnc2)cn1
3: Cl.Cl.c1cn(CCCOc2ccc(OCCCn3ccnc3)cc2)cn1
4: c1cn(CCCCCCCCCCCCCCCCCCn2ccnc2)cn1
Q: // smallest pIC50 at index 0, largest at the end Give your ranking as a list of the labels in the requested order.
Ans: 3, 2, 4, 1
(3: 5.31, 2: 5.80, 4: 6.40, 1: 7.66)

a: CCC[n+]1ccn(CCCCCCCCCCCCn2cc[n+](CCC)c2)c1.[I-].[I-]
b: C[n+]1ccn(Cc2ccc(-c3ccc(Cn4cc[n+](C)c4)cc3)cc2)c1.[I-].[I-]
Q: Hi, I'm comparing a with b and wondering which one has the bigger number for pIC50. Any idea? Choose, then provide that item's label.
Ans: a
(a: 9.10, b: 6.74)

A: C[n+]1ccn(CCCCCCCCCCCCCCCCCCCCn2cc[n+](C)c2)c1.[I-].[I-]
B: c1cn(-c2ccc(-n3ccnc3)cc2)cn1
C: Cl.Cl.c1ncn(CCCCCCCCCCCCn2cncn2)n1
D: C[n+]1ccn(CCCCCCCCCCCCn2cc[n+](C)c2)c1.[I-].[I-]
Q: Sort low-to-high on pIC50, please. As an answer, provide the labels arranged in the order called for.
Ans: B, C, D, A
(B: 4.03, C: 4.72, D: 8.22, A: 8.68)

A: C[n+]1cn(-c2ccc(-c3ccc(-n4c[n+](C)c5ccccc54)cc3)cc2)c2ccccc21.[I-].[I-]
B: C[n+]1ccn(CCCCCCCCn2cc[n+](C)c2)c1.[I-].[I-]
C: c1cn(CCCCCCCCCCCCCCCCn2ccnc2)cn1
Q: Put the compounds in ascending order of pIC50. Give the labels in the order specified.
Ans: B, C, A
(B: 5.33, C: 6.19, A: 7.15)

P: Cl.Cl.c1cn(CCCCn2ccnc2)cn1
Q: Cl.Cl.c1cn(CCCCCCCCCCCCn2ccnc2)cn1
R: C[n+]1ccn(CCCCCCCCCCCn2cc[n+](C)c2)c1.[I-].[I-]
Q: Could you please order the items by pIC50, going from the lowest number to the highest? Please list the labels according to the requested order.
Ans: P, Q, R

I: C[n+]1ccn(CCCCCCCCCCCCCn2cc[n+](C)c2)c1.[I-].[I-]
II: c1cn(CCCCCCCCCCCCCCCCCCCCn2ccnc2)cn1
III: Cl.Cl.c1cn(CCCCCCCCn2ccnc2)cn1
IV: C[n+]1ccn(CCCCCCCCCCCCCCn2cc[n+](C)c2)c1.[I-].[I-]
V: C[n+]1ccn(CCCCn2cc[n+](C)c2)c1.[I-].[I-]
Q: Order the records, beginning with the lowest pIC50 and ending with the highest. # format: label list in the order the request specifies
Ans: V, III, II, I, IV

1: C[n+]1cnn(CCCCCCCCCCCCn2c[n+](C)cn2)c1.[I-].[I-]
2: C[n+]1ccn(CCCCCCCCCCn2cc[n+](C)c2)c1.[I-].[I-]
Q: Among 1 and 2 , which shows a numerically higher pIC50 result? Lab log: write the label of the selected item as the result.
Ans: 1

A: C[n+]1ccn(-c2ccc(-c3ccc(-n4cc[n+](C)c4)cc3)cc2)c1.[I-].[I-]
B: c1cn(-c2ccc(-c3ccc(-n4ccnc4)cc3)cc2)cn1
C: C[n+]1ccn(CCCOc2ccc(OCCCn3cc[n+](C)c3)cc2)c1.[I-].[I-]
D: C[n+]1ccn(-c2ccc(-n3cc[n+](C)c3)cc2)c1.[I-].[I-]
Q: Rank ascending by pIC50. Your reply should list the labels following the order given in the request.
Ans: D, B, C, A
(D: 4.95, B: 5.51, C: 7.35, A: 8.05)
